Taken from the supplement of paper PMC3334620.

target: Stb4 (UniProt P50104); test: PBM E-score (8-mer binding enrichment) (E-score (-0.5 to 0.5)); higher = stronger / more preferred TF binding; conditions: protein concentration: 200 nM; construct: GST-DNA-binding domain
Sequence (P50104 whole entry, the tested form may be a part): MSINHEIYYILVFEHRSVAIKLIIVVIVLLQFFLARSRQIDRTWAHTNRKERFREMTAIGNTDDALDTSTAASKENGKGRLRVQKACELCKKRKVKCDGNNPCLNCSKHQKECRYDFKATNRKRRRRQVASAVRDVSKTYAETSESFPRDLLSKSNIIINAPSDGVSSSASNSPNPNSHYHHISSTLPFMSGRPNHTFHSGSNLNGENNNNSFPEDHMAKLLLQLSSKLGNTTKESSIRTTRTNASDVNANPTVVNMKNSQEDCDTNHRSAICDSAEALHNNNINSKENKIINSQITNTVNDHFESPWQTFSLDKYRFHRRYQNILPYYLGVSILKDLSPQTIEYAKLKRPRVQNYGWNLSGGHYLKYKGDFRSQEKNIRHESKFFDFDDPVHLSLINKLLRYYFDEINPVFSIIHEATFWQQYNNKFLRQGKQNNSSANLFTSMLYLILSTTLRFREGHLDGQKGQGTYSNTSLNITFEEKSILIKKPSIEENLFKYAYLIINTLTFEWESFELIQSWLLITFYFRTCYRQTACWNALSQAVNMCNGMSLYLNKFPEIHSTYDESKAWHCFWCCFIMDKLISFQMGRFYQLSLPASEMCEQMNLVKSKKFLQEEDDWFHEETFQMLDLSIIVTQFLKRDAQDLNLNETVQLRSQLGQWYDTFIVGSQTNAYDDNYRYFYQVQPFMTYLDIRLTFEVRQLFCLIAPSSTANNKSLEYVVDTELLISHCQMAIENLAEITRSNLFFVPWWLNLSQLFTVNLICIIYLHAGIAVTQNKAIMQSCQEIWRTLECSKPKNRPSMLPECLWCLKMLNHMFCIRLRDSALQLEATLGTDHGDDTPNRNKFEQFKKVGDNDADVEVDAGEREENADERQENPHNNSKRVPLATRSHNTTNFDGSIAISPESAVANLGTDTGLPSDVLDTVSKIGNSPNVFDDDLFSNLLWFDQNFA
Whole data set: some 33,000 sequences, median “E-score (-0.5 to 0.5)” near -0.056, cut for the highest 2% near 0.38. The list comes from a sample in which the highest values are over-represented; it also holds close analogues and randomly drawn sequences.
I'd appreciate it if you could supply PBM E-score values for the items below.

Reference set (2 entries):
> print(dat)
   biopolymer.sequence  test.readout  measurement
1             AGGCTAAA   PBM E-score       -0.163
2             AAATTCGG   PBM E-score        0.389

Give one value of PBM E-score per listed sequence.
1. ACACCCGA
2. CAACATCC
3. CATCTCGA
4. AAATTCGT
5. CACCTCCA
6. GATTCGGC
7. TCTGGACA

0.445
0.213
-0.252
0.117
-0.167
0.393
-0.0785

Look at each sequence and report its PBM E-score.
1. TCACCCAA
2. ATATTCCC
3. ATGCCGAC
4. AAATTCCG
5. ACACCCGC
6. ATATTCGA
7. CCACCCGA

1. -0.112
2. 0.32
3. 0.333
4. 0.387
5. 0.164
6. 0.0718
7. 0.379

Return reported PBM E-score values for all items listed beneath this line.
1. AAGGGAGC
2. AAATTCCA
3. CCACAGAA
4. CATCTCGG
5. GAATACCC
6. GAGGAGGA
7. AACCAAGA
8. GTGCCAAA

[-0.0979, -0.0536, -0.0915, 0.458, 0.341, -0.152, -0.0962, -0.0603]

Each sequence below has a recorded value; state its PBM E-score.
1. CGGTCCAG
2. AATGGAAA
3. AATCTCGT
4. ACCGCGTG
5. CCCCGATA

[-0.0508, 0.0387, -0.0273, 0.053, 0.145]

###

molecular target: Stb4 (UniProt P50104); test: PBM E-score (8-mer binding enrichment) (E-score (-0.5 to 0.5)); higher = stronger / more preferred TF binding; settings: protein concentration: 200 nM; construct: GST-DNA-binding domain
In all, about 33,000 sequences were measured (“E-score (-0.5 to 0.5)”: median about -0.056, highest 2% from about 0.38 on). For the sample, the highest values were picked, then their nearest neighbours and some sequences at random.
test readout: PBM E-score
Numbers only.

Take a look at these entries with their results.
> print(dat)
   biopolymer.sequence  measurement
1             TCGAAAAA     -0.00854
2             CACTGCCA       -0.176
3             ATCTTCGA       -0.171

Required: PBM E-score, one value per sequence below.
1. CTGAAGTC
2. ATCGGGTA
3. ATCTTCCA
4. ATGTTCCC
5. CCGAAAAA
6. CCGTTCCC
7. CGGAAGTA
8. ACGGATCC

1: 0.0307; 2: 0.419; 3: -0.137; 4: 0.153; 5: 0.434; 6: 0.273; 7: 0.419; 8: 0.352

###

target: Stb4 (UniProt P50104); assay: PBM E-score (8-mer binding enrichment) (E-score (-0.5 to 0.5)); higher = stronger / more preferred TF binding; details: protein concentration: 200 nM; construct: GST-DNA-binding domain
Over roughly 33,000 sequences, “E-score (-0.5 to 0.5)” has its median near -0.056; the highest 2% begin near 0.38. This excerpt belongs to a sample that is enriched for the highest values.
test readout: PBM E-score
Answers are plain numbers.

> print(dat)
   biopolymer.sequence  measurement
1             ACTTTCCT        -0.22
2             CGTCGGTA        0.294
3             CCGAGCGC         0.44
4             CCGGAAGC        0.395
5             CAATCTGA      -0.0386
6             GGCAAGTA       0.0793

Could you tell me PBM E-score for each of these sequences? They are listed below.
1. CTTCGGTA
2. CCTTGTGA

0.383
-0.0811

###

target: Stb4 (UniProt P50104); test: PBM E-score (8-mer binding enrichment) (E-score (-0.5 to 0.5)); higher = stronger / more preferred TF binding; settings: protein concentration: 200 nM; construct: GST-DNA-binding domain
Over roughly 33,000 sequences, “E-score (-0.5 to 0.5)” has its median near -0.056; the highest 2% begin near 0.38. This excerpt belongs to a sample that is enriched for the highest values.
Answer no (0) if PBM E-score is under -0.008, and yes (1) if it is -0.008 or more.

> print(dat)
   biopolymer.sequence  discrete.label
1             CCGAGACG         yes (1)

Check if PBM E-score >= -0.008 (inclusive). Item: `CCACCTAC` no (0)

How about `GCCCCGGA` ? yes (1)

Do the same for `CGGAGACG` please yes (1)

Queued: `AGAGCCGA` yes (1)

Would you mind doing `ACACAACC` as well? no (0)

Do the same for `ACCAAGAA` please no (0)

Next sequence: `ACTCGGAG` yes (1)

Now consider `ATTCACAA` . no (0)

Now the sequence `CTGCTAAC` no (0)

Next up: `AATCCGAC` yes (1)

// same read-out, input: `CCTTGATA` no (0)

Repeat for the following sequence: `CGGGCGAA` yes (1)

Request: `ACGCAAAT` yes (1)

Try the sequence `AGCTCGCC` no (0)

Can you handle `CCGAGAGC` next? yes (1)

###

Provide the recorded PBM E-score for the entries that follow.
target: Stb4 (UniProt P50104); test: PBM E-score (8-mer binding enrichment) (E-score (-0.5 to 0.5)); higher = stronger / more preferred TF binding; settings: protein concentration: 200 nM; construct: GST-DNA-binding domain
In all, about 33,000 sequences were measured (“E-score (-0.5 to 0.5)”: median about -0.056, highest 2% from about 0.38 on). This excerpt belongs to a sample that is enriched for the highest values.
Numbers only.

Illustrative cases are given below, each with its answer.
> print(dat)
   biopolymer.sequence  measurement
1             CTACGGAA        0.222
2             CTCGAGGA       -0.188
3             CCGGATCG        0.413

Could you tell me PBM E-score for each of these sequences? They are listed below.
1. GATTCAGA
2. CCCGAGGA
3. AGCGGATG
4. ATTCGGAA
5. CATTTCCA

-0.121
0.388
0.275
0.456
-0.196

###

Give PBM E-score for every item shown.
target: Stb4 (UniProt P50104); test: PBM E-score (8-mer binding enrichment) (E-score (-0.5 to 0.5)); higher = stronger / more preferred TF binding; details: protein concentration: 200 nM; construct: GST-DNA-binding domain
Over roughly 33,000 sequences, “E-score (-0.5 to 0.5)” has its median near -0.056; the highest 2% begin near 0.38. What follows is part of a selection rich in the highest values, with near analogues and random picks from the rest.
Numbers only.

> print(dat)
   biopolymer.sequence  test.readout  measurement
1             TGCCGGCA   PBM E-score        0.296
2             CCTTCCGC   PBM E-score        0.306
3             ATTTCCGC   PBM E-score        0.307

Continue with the sequence presented below.
# returns recorded PBM E-score (system: Stb4 (UniProt P50104)) for `AGCTCCGG` 0.301

###

target: Stb4 (UniProt P50104); assay: PBM E-score (8-mer binding enrichment) (E-score (-0.5 to 0.5)); higher = stronger / more preferred TF binding; conditions: protein concentration: 200 nM; construct: GST-DNA-binding domain
Over roughly 33,000 sequences, “E-score (-0.5 to 0.5)” has its median near -0.056; the highest 2% begin near 0.38. What follows is part of a selection rich in the highest values, with near analogues and random picks from the rest.
test readout: PBM E-score

Consider the following illustrative entries.
> print(dat)
   biopolymer.sequence  measurement
1             CACGAATA        -0.22
2             AGTTCGGC        0.357
3             ACCGAATA        0.215

Dear colleague, could you please provide PBM E-score for the sequences listed below?
1. ACCTTCGA
2. TACTCGCA
3. ACGATCCA
4. ATCATCCA
5. AAAGCCGA
6. CCGATCCG
7. GAAGCCCA
8. GCCGAATA

[-0.171, -0.0584, -0.0732, -0.121, 0.322, 0.445, -0.1, 0.427]

Your task in this section: give PBM E-score for each listed record.
1. CCGATCCA
2. AACATCCC
3. AACATCCG

1. 0.238
2. 0.232
3. 0.45

Give me PBM E-score for each of these sequences, listed below.
1. CTTTCGGC
2. CGGACCCG
3. AACTCGCG
4. GCCCATTA
5. ATACCGAC
6. CAAGCCGA
7. ACGTTCAG
8. ATTTCGGC

1: 0.386; 2: 0.346; 3: -0.00482; 4: -0.168; 5: 0.167; 6: 0.297; 7: -0.252; 8: 0.371

For every record below, what is its PBM E-score?
1. CTTTCGTA
2. GTCGAATA

-0.177
-0.181
